Kindly state GI50 for each of the entries shown.
system: RPMI-8226; experiment: NCI tumour cell line growth inhibition, 48 h
Active and inactive are the calls of the source. Cut-off read from the data, not from the text of the source: active = GI50 up to about 1.1 µM and inactive = higher.

Input: Return reported GI50; argument: C=C1C(=O)OC2/C=C(\COC(C)=O)CCC(OC(C)=O)C3=CC(OC3=O)C12 (stereo not given)
Output: 3.53 µM (inactive)

Input: // next record Oc1ccc2c(c1)OCC(O)(c1ccccc1O)C2 (stereo not given)
Output: > 100 µM (inactive)

Input: // next record O=c1[nH]c(=O)n(C2CC(O)C(CO)O2)cc1C#Cc1c(F)c(F)c(F)c(F)c1F (stereo not given)
Output: > 100 µM (inactive)

Input: // next record CCOC(=O)NC(=S)NN(C)C1=NCC(C)(C)S1
Output: > 100 µM (inactive)

Input: // next record Clc1ccc2oc(CCc3ccccc3)nc2c1
Output: 46.1 µM (inactive)

Input: // next record COc1cc(S(=O)(=O)Nc2ccc(-c3csc(N4C(=O)C(C)SC4c4ccccc4O)n3)cc2)ccc1Cl (stereo not given)
Output: 32.1 µM (inactive)

Input: // next record CC(C)(C)C1CCC2c3c([nH]c4ccccc34)C3C(=O)N(c4cccc(Cl)c4)C(=O)C3C2C1 (stereo not given)
Output: 9.27 µM (inactive)

Input: // next record CCOC(=O)C1=C(C)N(NC(=O)Nc2ccccc2)C(=O)C1=P(c1ccccc1)(c1ccccc1)c1ccccc1
Output: 24.2 µM (inactive)

Input: // next record CC(C)(Cl)C(Br)CCC(C)(Cl)C(Br)CBr (stereo not given)
Output: 18.1 µM (inactive)

Input: // next record NC(=O)C(=Cc1ccc(C(O)P(=O)(O)O)cc1)C(N)=O (stereo not given)
Output: > 100 µM (inactive)

###

tested on: TK-10; experiment: NCI tumour cell line growth inhibition, 48 h
Active and inactive are the calls of the source. No stated cut-off is given here; in the data, active = GI50 up to about 1.1 µM and inactive = higher.
quantity: GI50

Input: Return reported GI50; argument: CN(C)C=C1C(Cl)=C(C=O)CC(C=O)=C1Cl
Output: 16.7 µM (inactive)

Input: // next record O=c1cc(-c2ccccc2)nc(-n2[nH]c3c(c2=O)CCCC3)[nH]1
Output: 5 µM (inactive)

Input: // next record CC(=O)Nc1ccc(SC#N)c2c(NC(C)=O)cccc12
Output: > 100 µM (inactive)

Input: // next record CN1CCN(CCCNN)CC1
Output: > 100 µM (inactive)

Input: // next record O=Cc1[nH]c2ccccc2c1Br
Output: 36.6 µM (inactive)

Input: // next record CC(C)(C)C1C=C(Sc2ccccc2)C(=O)O1 (configuration not stated)
Output: 60.5 µM (inactive)

Input: // next record c1ccc(-c2csc3ncn4cnnc4c23)cc1
Output: 84.3 µM (inactive)

Input: // next record CC(=O)OC(C)c1cc2c(s1)C(=O)c1ccsc1C2=O (configuration not stated)
Output: 1.22 µM (inactive)

Input: // next record NC(=O)C(=CNC(=S)Nc1cccc(C(F)(F)F)c1)C(N)=O
Output: > 100 µM (inactive)

Input: // next record CCCCCC/C=C1\CCC(CN(C)C)C1=O (configuration not stated)
Output: 3.53 µM (inactive)

Input: // next record COc1cc(S(=O)(=O)Nc2nc(-c3ccc(N)cc3)cs2)ccc1Cl
Output: 48 µM (inactive)

Input: // next record CC1OC(OC2C(O[C@H]3CC[C@@]4(C)C(=CC[C@H]5[C@@H]6C[C@@H]7O[C@]8(CC[C@H](C)CN8)[C@@H](C)[C@@H]7[C@@]6(C)CC[C@@H]54)C3)OC(CO)C(O)C2OC2OC(CO)C(O)C(O)C2O)C(O)C(O)C1O (some centres not stated)
Output: 17.3 µM (inactive)

Input: // next record CC(C)=CC(=O)c1[nH]c2ccccc2c1CC(=O)NCCc1c[nH]cn1
Output: > 100 µM (inactive)

Input: // next record CC(C)=CCc1cc(C2COc3cc4c(c(O)c3C2=O)C=CC(C)(C)O4)c(O)cc1O (configuration not stated)
Output: 16.8 µM (inactive)

Input: // next record CCC1(CN(C)C)CC/C(=C\c2ccc(OC)cc2)C1=O (configuration not stated)
Output: > 100 µM (inactive)

Input: // next record O=C(NC1=C(Cl)C(=O)c2ccccc2C1=O)c1ccc(F)cc1
Output: 5.09 µM (inactive)

Input: // next record Nc1nccc2c1ncn2C1C=C(CO)C(O)C1O (configuration not stated)
Output: > 95.5 µM (inactive)

Input: // next record O=C(C/N=C(\CN(c1ccccc1)c1ccccc1)Oc1c([N+](=O)[O-])cc([N+](=O)[O-])cc1[N+](=O)[O-])N1CCNCC1
Output: > 100 µM (inactive)

Input: // next record NCCCN(CCCN)CCN(CCN(CCCN)CCCN)CCN(CCCN)CCCN
Output: > 100 µM (inactive)

Input: // next record COc1ccccc1NC(=O)C1=C(C)NC(C)=C(C(=O)Nc2ccccc2OC)C1c1cccc2c1OCO2
Output: > 100 µM (inactive)

Input: // next record O=c1oc2ccccc2cc1-c1nnc(-c2ccccc2)s1
Output: > 36.6 µM (inactive)

Input: // next record COc1ccc2o/c(=N\c3ccc(F)cc3)c(C(N)=O)cc2c1
Output: 21.6 µM (inactive)

Input: // next record CC(=O)N1C(Nc2ccccc2)CCN1c1ccccc1 (configuration not stated)
Output: > 10 µM (inactive)

Input: // next record CCCCCCCCCCOC1C(C(O)CNCCCN(C)C)OC2OC3(CCCCC3)OC21 (configuration not stated)
Output: 3.21 µM (inactive)

Input: // next record CCC1(Br)C(=O)NC(=O)N(C2CC(O)C(CO)O2)C1N=[N+]=[N-] (configuration not stated)
Output: > 100 µM (inactive)

Input: // next record Cc1ccc2c(c1)C(=S)N1CSCC1c1nncn1-2 (configuration not stated)
Output: > 100 µM (inactive)

Input: // next record CCOC(=O)c1c(N2CCCC2)[nH]c(=O)c(C(c2ccc(N(C)C)cc2)c2c(O)c(C(=O)OCC)c(N3CCCC3)[nH]c2=O)c1O
Output: 94.2 µM (inactive)

Input: // next record Cc1ccc(N2CCc3c(C)c(C#N)c4nc5ccccc5n4c32)cc1
Output: > 100 µM (inactive)

Input: // next record Cn1c(=O)cc(NNc2ccc(Br)cc2)[nH]c1=O
Output: 20.3 µM (inactive)

Input: // next record Cc1ccc(-c2n[nH]c(=O)[nH]2)cc1[N+](=O)[O-]
Output: > 100 µM (inactive)

Input: // next record C[C@]12CCC(=O)C(O)=C1CCC2=O
Output: > 100 µM (inactive)

Input: // next record CCOC(=O)CCCN
Output: > 100 µM (inactive)

Input: // next record C=CCOn1c(C=C)nc2c(C)cccc21
Output: 2.63 µM (inactive)

Input: // next record B.CC(=O)OC1CN2CCC1CC2 (configuration not stated)
Output: > 100 µM (inactive)

Input: // next record O=C(NCc1ccccc1)c1nn[nH]c1O
Output: > 100 µM (inactive)

Input: // next record C1CSC(=[N+]2CC[N+](=C3SCCS3)CC2)S1
Output: > 100 µM (inactive)

Input: // next record Cc1ccccc1C(=O)c1cc(O)ccc1O
Output: > 100 µM (inactive)
